details: in water, 318.15 K
Consider the following compounds; for each one, report its solubility (mole fraction).

Nc1ccc(S(=O)(=O)Nc2ncccn2)cc1: 1.33e-05
COc1cc(NS(=O)(=O)c2ccc(N)cc2)ncn1: 9.63e-06

Kindly give each listed record's solubility (mole fraction).
1. COc1cc(NS(=O)(=O)c2ccc(N)cc2)nc(OC)n1
2. Nc1ccc(S(=O)(=O)[N-]c2cncc(Cl)n2)cc1.[Na+]
3. COc1cnc(NS(=O)(=O)c2ccc(N)cc2)nc1

Response given:
["7.25e-06", "2.3e-05", "1.48e-05"]

###

For each record, write down the corresponding solubility (mole fraction).
settings: in water, 333.15 K
Give bare numbers.

A selection of reference data follows.
COc1cc(NS(=O)(=O)c2ccc(N)cc2)ncn1: 1.76e-05
COc1cnc(NS(=O)(=O)c2ccc(N)cc2)nc1: 2.92e-05
Nc1ccc(S(=O)(=O)[N-]c2cncc(Cl)n2)cc1.[Na+]: 3.91e-05

Go through the items and report each one's solubility (mole fraction).
1. Nc1ccc(S(=O)(=O)Nc2ncccn2)cc1
2. COc1cc(NS(=O)(=O)c2ccc(N)cc2)nc(OC)n1

Response given:
["2.62e-05", "1.28e-05"]

###

settings: in water, 313.15 K
Consider the following compounds; for each one, report its solubility (mole fraction).
Numbers only.

Please review the entries below; each comes with its answer.
COc1cc(NS(=O)(=O)c2ccc(N)cc2)ncn1: 7.65e-06
Nc1ccc(S(=O)(=O)[N-]c2cncc(Cl)n2)cc1.[Na+]: 1.91e-05
COc1cnc(NS(=O)(=O)c2ccc(N)cc2)nc1: 1.17e-05
COc1cc(NS(=O)(=O)c2ccc(N)cc2)nc(OC)n1: 5.83e-06

Okay, next one:
Challenge: Please indicate solubility (mole fraction) recorded for Nc1ccc(S(=O)(=O)Nc2ncccn2)cc1
Response given: 1.05e-05

###

Field: solubility (mole fraction). Provide a value for each of the compounds that follow.
conditions: in water, 323.15 K
Answers are plain numbers.

Example entries and their recorded answers appear below.
COc1cnc(NS(=O)(=O)c2ccc(N)cc2)nc1: 1.88e-05
COc1cc(NS(=O)(=O)c2ccc(N)cc2)ncn1: 1.17e-05
Nc1ccc(S(=O)(=O)Nc2ncccn2)cc1: 1.7e-05
COc1cc(NS(=O)(=O)c2ccc(N)cc2)nc(OC)n1: 8.76e-06

Please look at the following compound next.
Challenge: Look up solubility (mole fraction) of Nc1ccc(S(=O)(=O)[N-]c2cncc(Cl)n2)cc1.[Na+] and report it.
Response given: 2.75e-05
